# Tested on: MS2 coat protein
# Method notes: apparent KD of MS2 coat protein; higher = weaker reporter binding
# Condition label: Eterna round: R107; input ligand: theophylline 20 uM
Kind request: treat 0.09 µM as inclusive, so apparent KD of MS2 coat protein at 0.09 µM or higher is 1.0, anything lower is 0.0.

Use the examples below as a reference point.
Lookup: hey, is apparent KD of MS2 coat protein for this one >= 0.09 µM? GCACCAGGUACGGAUACCAGCUGCUCGAGAUACAUGAGGAUCACCCAUGUGACCUGGUUUAGCCCUUGGCAGCUGUACCUGGUGC [#15 Same State - Theophylline B]
Found: 0.0

Lookup: hey, is apparent KD of MS2 coat protein for this one >= 0.09 µM? GGAUAGAUAGGAGAUACCAGACACAUUAACAUGAGGAUCACCCAUGUGUCUGCACUAAGUGUCCCUUGGCAGCUCGGAGAUCUGA [Same State - Theophylline B]
Found: 0.0

Lookup: hey, is apparent KD of MS2 coat protein for this one >= 0.09 µM? ACAUGAGGAUCACCCAUGUGCCGUCUUGAUACCAGACGCGAAGUAGUCCCUUGGCAGCAAAUACGUGAGGGUCGCGCAUGUGUAA [wzxmullin]
Found: 0.0

Lookup: hey, is apparent KD of MS2 coat protein for this one >= 0.09 µM? GACAUGAGGAUCACCCAUGUUUUCUAUGAAGGAGCGUCGGAAAUGACAGGUAGGUCGCAUGGUAGGACUUGUAUCUUGUAUGUAG [EAA NP+V+V2 #10]
Found: 0.0

Lookup: hey, is apparent KD of MS2 coat protein for this one >= 0.09 µM? UGACACAUGAGGAUCACCCAUGUCGCGAAACGAGGACCGGUACGGCCGCCACUCGCACAAACUCCUCUCCAGCACCAGCUUUUAG [theeternabot_sameState_MS2_Trp_A_3]
Found: 0.0

Next:
Lookup: hey, is apparent KD of MS2 coat protein for this one >= 0.09 µM? ACGCUGAUUGAUUACAAUCAGCGAAAAGAUACCAGUGGGUAAUCCCACCCUUGGCAGCUUAAACAAGAGGAUCACCCUUGUGGUA [TheoAS 16 #MS2Right #BothOrNeither #AlternativeMS2]
Found: 1.0
